Values from patent US20220033501A1

Provide the reported koff of each item.
target-of-assay: T1, human TIM-3 ECD (antigen protein of the affinity test) (human, UniProt Q8TDQ0 22-200)
T1 sequence: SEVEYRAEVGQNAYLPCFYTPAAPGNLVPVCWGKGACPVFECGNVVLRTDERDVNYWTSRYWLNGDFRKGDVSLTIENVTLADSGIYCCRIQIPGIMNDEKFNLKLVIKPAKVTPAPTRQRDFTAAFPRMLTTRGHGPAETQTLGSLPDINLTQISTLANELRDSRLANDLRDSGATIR
experiment-description: AHC sensor kinetics, antibody captured on sensor, antigen protein in solution, global 1:1 fit

Task: Write down koff measured for item fully human TIM-3 antibody 134H3G6 (antibody, human IgG4, V domains shown, also called antibody number 3) VH: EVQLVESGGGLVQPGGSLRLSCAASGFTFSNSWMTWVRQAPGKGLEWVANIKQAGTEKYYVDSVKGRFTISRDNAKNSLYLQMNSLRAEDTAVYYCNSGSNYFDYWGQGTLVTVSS VL: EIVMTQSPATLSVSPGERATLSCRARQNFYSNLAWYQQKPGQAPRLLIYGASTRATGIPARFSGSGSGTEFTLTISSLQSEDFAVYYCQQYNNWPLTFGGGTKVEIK
Output: 0.00483 s⁻¹

Task: Write down koff measured for item fully human TIM-3 antibody 39E5H1 (antibody, human IgG4, V domains shown, also called antibody number 6) VH: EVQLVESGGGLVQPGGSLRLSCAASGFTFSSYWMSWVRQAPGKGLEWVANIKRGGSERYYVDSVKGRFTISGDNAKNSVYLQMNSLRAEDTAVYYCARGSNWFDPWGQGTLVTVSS VL: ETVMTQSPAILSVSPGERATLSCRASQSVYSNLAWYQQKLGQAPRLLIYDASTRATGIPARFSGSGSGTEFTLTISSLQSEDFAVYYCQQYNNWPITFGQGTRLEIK
Output: 0.00155 s⁻¹

Task: Write down koff measured for item fully human TIM-3 antibody 7A4F10 (antibody, human IgG4, V domains shown, also called antibody number 1) VH: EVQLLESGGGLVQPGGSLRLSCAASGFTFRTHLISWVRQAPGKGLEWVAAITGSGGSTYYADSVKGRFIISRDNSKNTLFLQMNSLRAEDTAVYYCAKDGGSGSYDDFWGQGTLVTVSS VL: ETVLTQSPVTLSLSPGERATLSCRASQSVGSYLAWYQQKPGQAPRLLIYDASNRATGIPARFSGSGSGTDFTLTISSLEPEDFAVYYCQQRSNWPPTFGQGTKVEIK
Output: 0.00113 s⁻¹
